MEASUREMENT TARGET: Casein kinase II (Homo sapiens, UniProt P19784+P67870+P68400)
Sequence (P67870 whole entry): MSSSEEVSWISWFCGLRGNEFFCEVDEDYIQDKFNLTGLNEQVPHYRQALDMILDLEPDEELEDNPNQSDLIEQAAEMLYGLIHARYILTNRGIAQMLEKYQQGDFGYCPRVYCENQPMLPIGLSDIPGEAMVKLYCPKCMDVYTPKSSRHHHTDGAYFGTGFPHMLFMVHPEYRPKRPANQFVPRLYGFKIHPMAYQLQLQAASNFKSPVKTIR
Sequence (P68400 whole entry): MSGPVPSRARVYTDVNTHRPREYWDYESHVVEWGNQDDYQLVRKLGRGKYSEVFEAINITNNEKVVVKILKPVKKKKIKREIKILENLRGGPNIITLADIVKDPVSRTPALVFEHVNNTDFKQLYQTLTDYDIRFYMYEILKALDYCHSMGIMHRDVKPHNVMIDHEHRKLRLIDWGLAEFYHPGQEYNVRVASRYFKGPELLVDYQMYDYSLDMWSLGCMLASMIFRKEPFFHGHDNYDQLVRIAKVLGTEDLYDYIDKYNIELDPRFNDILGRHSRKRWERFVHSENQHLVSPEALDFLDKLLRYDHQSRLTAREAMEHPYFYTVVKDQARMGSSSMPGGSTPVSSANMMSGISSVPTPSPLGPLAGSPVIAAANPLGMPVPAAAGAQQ
Sequence (P19784 whole entry): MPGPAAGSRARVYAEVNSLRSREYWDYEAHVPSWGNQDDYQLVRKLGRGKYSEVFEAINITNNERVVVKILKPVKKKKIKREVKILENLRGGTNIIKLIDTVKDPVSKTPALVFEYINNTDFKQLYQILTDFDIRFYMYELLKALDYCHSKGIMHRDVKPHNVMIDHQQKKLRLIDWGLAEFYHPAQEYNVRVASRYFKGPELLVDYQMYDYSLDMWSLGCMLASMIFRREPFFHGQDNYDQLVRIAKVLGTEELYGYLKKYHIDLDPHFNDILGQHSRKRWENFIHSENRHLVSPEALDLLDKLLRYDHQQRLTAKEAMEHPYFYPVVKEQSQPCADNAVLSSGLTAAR
PROTOCOL TEXT: Inhibition of casein kinase 2
pIC50: −log10 of the molar value.
READOUT TYPE: pIC50

Task item: Would you mind telling me what pIC50 value was observed for CN(C)CCNc1cncc(-c2cncc(Nc3cccc(Cl)c3)n2)c1 ?
Reply: < 5.00

Task item: Would you mind telling me what pIC50 value was observed for OCCCCNc1cncc(-c2cncc(Nc3cccc(Cl)c3)n2)c1 ?
Reply: < 5.00

Task item: Would you mind telling me what pIC50 value was observed for Clc1cccc(Nc2cncc(-c3cncc(NCCCc4cccnc4)c3)n2)c1 ?
Reply: < 5.00

Just for reference, ChEMBL document CHEMBL1140334 is where these values come from.
